# Tested on: ATP;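 also: ATP exposure 15 min at 22 °C before imaging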
# test.description: switch fluorescence ratio, 500 uM ATP over buffer (Cy3 cluster intensity, sum of 5 cycles each) (fold (ratio)); higher = stronger signal-on switching upon ATP binding; sequences stand for … in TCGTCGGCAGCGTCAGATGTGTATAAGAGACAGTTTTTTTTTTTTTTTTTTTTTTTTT…TC
# test.conditions: aptamer strand: ATP DNA aptamer (quencher-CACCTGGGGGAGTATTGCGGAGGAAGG + anchor), 100 nM annealed; ATP concentration: 500 uM
assay.readout: switch fluorescence ratio
One number for each entry.

Reference set (6 entries):
{"entry.sequence": "CAATGGGTCT", "switch fluorescence ratio": 0.952}
{"entry.sequence": "AAGGCGGCAT", "switch fluorescence ratio": 1}
{"entry.sequence": "TTGGGGAAG", "switch fluorescence ratio": 0.985}
{"entry.sequence": "GTTACTTGGT", "switch fluorescence ratio": 1.01}
{"entry.sequence": "TTTCCGTTTC", "switch fluorescence ratio": 1.06}
{"entry.sequence": "GACGTTTTAG", "switch fluorescence ratio": 0.993}

Please look at the items below and tell me switch fluorescence ratio for each one, in order.
1. AATTGGGATG
2. TTGGGTTGCG
3. TTGGGATTCT

Resp:
1: 0.975; 2: 0.964; 3: 0.979

Can you give me switch fluorescence ratio for all of these, one by one?
1. CGCTATATGG
2. TTTTGCGAAT

Resp:
1. 1.32
2. 0.996

Below are some sequences; for each one, tell me its switch fluorescence ratio.
1. TCGTATTTGG
2. TAGGATGTA
3. TGGGGGCCAT
4. CAGAAAGGAC
5. TTAGGCGCCG
6. CTTCTCTTCA

Resp:
0.993
0.964
0.999
1.02
0.994
1.02

Batch: switch fluorescence ratio for all items listed.
1. AGAGCATGGG
2. CTTATGGGGG
3. ATTTCATGCG
4. CAGATAAGGA
5. TATCAGTGGT
6. TCGGGTATTT

Resp:
1. 0.971
2. 1.03
3. 1.03
4. 1.01
5. 0.997
6. 0.998

Report switch fluorescence ratio for every entry below.
1. TCAGAGGCTG
2. ACGCAGCTGT
3. TTTAATTCGC
4. TCTATGCTTC
5. TTGGGCGGTT

Resp:
[0.988, 1.38, 1.1, 1.9, 1.13]

Would you mind listing switch fluorescence ratio for each of the following sequences?
1. TTTCGACTTT
2. GACGACGTTA
3. TAATTTAATA

Resp:
1: 1; 2: 1.55; 3: 1.02

Would you mind giving switch fluorescence ratio for every sequence in the list below?
1. GACGTTGCTA
2. ATACGTTTGG
3. CTGGGTGGGC
4. CCAATATTTA
5. AGCATGAACT
6. TTGTGAGCAA

Resp:
1: 1.06; 2: 1.01; 3: 0.993; 4: 0.994; 5: 1.07; 6: 1.33

* * *

Record form. Attribute: switch fluorescence ratio. Fill in for each entry.
# Test system: ATP;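 also: ATP exposure 15 min at 22 °C before imaging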
# test.description: switch fluorescence ratio, 500 uM ATP over buffer (Cy3 cluster intensity, sum of 5 cycles each) (fold (ratio)); higher = stronger signal-on switching upon ATP binding; sequences stand for … in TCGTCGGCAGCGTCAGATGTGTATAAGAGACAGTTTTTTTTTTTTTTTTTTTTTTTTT…TC
# test.conditions: aptamer strand: ATP DNA aptamer (quencher-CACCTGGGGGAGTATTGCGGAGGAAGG + anchor), 100 nM annealed; ATP concentration: 500 uM
Numbers only.

Solved entries (count: 6):
{"entry.sequence": "ATGGAGGCAA", "assay.readout": "switch fluorescence ratio", "test.value": 1.37}
{"entry.sequence": "TCTTGATTGT", "assay.readout": "switch fluorescence ratio", "test.value": 0.974}
{"entry.sequence": "GAGCGACCTG", "assay.readout": "switch fluorescence ratio", "test.value": 0.989}
{"entry.sequence": "CAGGGGCTGT", "assay.readout": "switch fluorescence ratio", "test.value": 0.997}
{"entry.sequence": "ACGCGGCGAT", "assay.readout": "switch fluorescence ratio", "test.value": 1.08}
{"entry.sequence": "GCTATGGTGC", "assay.readout": "switch fluorescence ratio", "test.value": 1.03}

Would you mind listing switch fluorescence ratio for each of the following sequences?
1. GCCTTCAAGC
2. GGGGGGTTGA
3. TATAAATGTT
4. TTAGGTGGAG

Resp:
1. 1.04
2. 1.1
3. 0.994
4. 0.977

Give switch fluorescence ratio for all sequences that follow.
1. CTCGTCAATT
2. AGCAAGTATC
3. TATTAAGGGT
4. TTTGCAATTA
5. TCGTAACAGG

Resp:
1.52
1.24
0.979
1.57
1.01

* * *

Would you kindly list switch fluorescence ratio for each of these sequences?
# Tested on: ATP;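 also: ATP exposure 15 min at 22 °C before imaging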
# test.description: switch fluorescence ratio, 500 uM ATP over buffer (Cy3 cluster intensity, sum of 5 cycles each) (fold (ratio)); higher = stronger signal-on switching upon ATP binding; sequences stand for … in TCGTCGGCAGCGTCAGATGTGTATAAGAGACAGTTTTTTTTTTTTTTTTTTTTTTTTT…TC
# test.conditions: aptamer strand: ATP DNA aptamer (quencher-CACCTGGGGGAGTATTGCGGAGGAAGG + anchor), 100 nM annealed; ATP concentration: 500 uM
Answers are plain numbers.

Example sequences with recorded switch fluorescence ratio:
{"entry.sequence": "AAAAGAATGG", "assay.readout": "switch fluorescence ratio", "test.value": 0.971}
{"entry.sequence": "ATAGGAGTTA", "assay.readout": "switch fluorescence ratio", "test.value": 0.981}

Quick one: give me switch fluorescence ratio for each item below, same order please.
1. TGTTATAGG
2. ACGGTCGGCT
3. ACCCTAGACG
4. AGGCGGGAGG
5. ATGGGCTCAG

Resp:
1: 1; 2: 1.04; 3: 1.03; 4: 1.03; 5: 1.01

Working through the 8 sequences below one at a time, give switch fluorescence ratio for each.
1. TGGGCCGCGC
2. ACTTATTGTA
3. TTTTACGCT
4. GGAAGTGGGC
5. ACGTTTGTTA
6. CGTTCCAGCC
7. GCTTATCTTT
8. GTCGGGAAGG

Resp:
1.04
0.988
1.03
1.03
1
1.04
0.978
1.01

* * *

# Test system: ATP;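 also: ATP exposure 15 min at 22 °C before imaging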
# test.description: switch fluorescence ratio, 500 uM ATP over buffer (Cy3 cluster intensity, sum of 5 cycles each) (fold (ratio)); higher = stronger signal-on switching upon ATP binding; sequences stand for … in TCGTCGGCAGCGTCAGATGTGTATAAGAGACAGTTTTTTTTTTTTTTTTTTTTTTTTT…TC
# test.conditions: aptamer strand: ATP DNA aptamer (quencher-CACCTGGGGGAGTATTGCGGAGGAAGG + anchor), 100 nM annealed; ATP concentration: 500 uM
For each of the sequences below, state its switch fluorescence ratio.
One number for each entry.

Solved entries:
{"entry.sequence": "GTTCGTTTTG", "switch fluorescence ratio": 0.975}
{"entry.sequence": "CGGTTTTTAG", "switch fluorescence ratio": 1.01}
{"entry.sequence": "AATAAAGGAT", "switch fluorescence ratio": 1}
{"entry.sequence": "TACTAATGGA", "switch fluorescence ratio": 1.01}
{"entry.sequence": "GCTAATTGGC", "switch fluorescence ratio": 1.04}
{"entry.sequence": "ACTAATATCG", "switch fluorescence ratio": 1.04}
{"entry.sequence": "CTATGTAAAT", "switch fluorescence ratio": 1.01}
{"entry.sequence": "TTTAAAAGCT", "switch fluorescence ratio": 1.07}

Would you mind listing switch fluorescence ratio for each of the following sequences?
1. TGGGGATACT
2. TATCTTTAGT
3. ATGTAAAGGT
4. ACGGTAGAAC
5. ATACTATGGT

Resp:
1.04
0.989
1.04
1.04
0.989

* * *

For each of the sequences below, state its switch fluorescence ratio.
# System: ATP;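 also: ATP exposure 15 min at 22 °C before imaging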
# test.description: switch fluorescence ratio, 500 uM ATP over buffer (Cy3 cluster intensity, sum of 5 cycles each) (fold (ratio)); higher = stronger signal-on switching upon ATP binding; sequences stand for … in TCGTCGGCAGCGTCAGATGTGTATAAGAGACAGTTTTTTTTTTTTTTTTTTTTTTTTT…TC
# test.conditions: aptamer strand: ATP DNA aptamer (quencher-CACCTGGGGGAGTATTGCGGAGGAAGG + anchor), 100 nM annealed; ATP concentration: 500 uM
Numbers only.

Past entries and their recorded results:
{"entry.sequence": "TATGGAAGCA", "switch fluorescence ratio": 0.994}
{"entry.sequence": "GAGTAGTTGT", "switch fluorescence ratio": 0.997}
{"entry.sequence": "ATTCATTATT", "switch fluorescence ratio": 0.993}
{"entry.sequence": "GGGGGGAGAC", "switch fluorescence ratio": 1.07}
{"entry.sequence": "GACTAGGCGG", "switch fluorescence ratio": 1.12}
{"entry.sequence": "CTGGGGAGGA", "switch fluorescence ratio": 0.997}

Give switch fluorescence ratio for each of the items listed below.
1. ACTGTTAATA
2. CGGGGTTACT
3. TATCATAGCC

Resp:
[1.03, 0.996, 1.02]

Your task in this section: give switch fluorescence ratio for each listed record.
1. TATTTCCGGG
2. TGTGATGTGG
3. GTTTTTCCCC
4. TATAGTCTTC

Resp:
1: 1.01; 2: 1.04; 3: 1.11; 4: 0.959
